Test: self-splicing fitness, log relative to wild type (ln ratio); higher = more splicing; Tetrahymena group I intron in knt gene, E. coli kanamycin selection, DiMSum; sequences stand for … in CUCUCU…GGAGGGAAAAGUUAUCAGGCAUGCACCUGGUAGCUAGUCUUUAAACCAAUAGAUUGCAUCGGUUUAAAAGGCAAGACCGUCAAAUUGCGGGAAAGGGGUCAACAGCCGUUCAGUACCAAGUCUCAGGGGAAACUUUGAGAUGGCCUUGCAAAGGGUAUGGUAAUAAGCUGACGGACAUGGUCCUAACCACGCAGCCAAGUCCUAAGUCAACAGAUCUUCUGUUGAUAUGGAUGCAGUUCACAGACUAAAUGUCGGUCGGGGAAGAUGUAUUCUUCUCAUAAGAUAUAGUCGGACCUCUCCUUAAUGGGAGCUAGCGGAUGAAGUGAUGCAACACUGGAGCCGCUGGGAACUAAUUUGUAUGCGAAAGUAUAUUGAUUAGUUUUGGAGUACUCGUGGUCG;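 also: selection with 25 µg/mL kanamycin versus none on LB agar overnight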
Settings: 30 °C
Binary call on self-splicing fitness (ln): yes from -2 upward, no beneath that.

{"columns": ["macromoleculeSequence", "cat"],
 "data": [
  ["UCGGAGCAAUAUUACGUUUA", "no"],
  ["AACCAGCAAUAUUACGAAUC", "yes"],
  ["UCCGAGCAAUAUUACGUCUU", "no"],
  ["GACCAGCAAUAUUACGUUGC", "yes"],
  ["CAGAAGCAAUAUUACGCCGG", "yes"],
  ["UAACAGCAAUAUUACGAUCA", "yes"]
]}
